Reference for the values: patent US11046670B2

# TARGET: sigma 1 receptor (Cavia porcellus (Guinea pig), UniProt Q60492)
# Sequence (Q60492 whole entry): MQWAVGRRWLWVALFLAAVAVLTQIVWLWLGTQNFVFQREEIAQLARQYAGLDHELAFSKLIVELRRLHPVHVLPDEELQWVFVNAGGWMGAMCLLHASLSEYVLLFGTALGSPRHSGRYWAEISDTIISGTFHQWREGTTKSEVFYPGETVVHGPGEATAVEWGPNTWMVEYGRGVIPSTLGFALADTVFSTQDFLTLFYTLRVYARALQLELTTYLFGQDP
# TEST DETAILS: biochemical
# EXPERIMENTAL SETUP: σ1 Ki (nM)
TEST READOUT: Ki (nM)

molecule="CN1CCN(c2ccc3c(c2)C2CC3CCN2C(=O)C2CCCCC2)CC1 (racemic) [(±)-TH-1-106]" target="sigma 1 receptor (Cavia porcellus (Guinea pig), UniProt Q60492)" measured_number=1420
molecule=Cc1cccc(-c2ccc3c(c2)[C@H]2C[C@H]3CCN2Cc2ccc3c(c2)OCO3)c1 target="sigma 1 receptor (Cavia porcellus (Guinea pig), UniProt Q60492)" measured_number=4610
